- Test system: Calf thymus DNA
- assay_procedure: Binding affinity to calf thymus DNA assessed as change in melting temperature at 0.5 drug/DNA ratio by spectrophotometry
- Format: nucleic-acid assay
- settings: Bos taurus
For each record, write down the corresponding ΔTm.
Reply numerically in °C, unit not repeated.

Report ΔTm, nothing else, for this molecule: CCCCCN(CCCCC)c1ccc2cc(C#N)c3nc4ccccc4n3c2c1
0

Given N#Cc1cc2ccc(N3CCNCC3)cc2n2c1nc1ccccc12 , respond with its ΔTm.
17.3

For the molecule N#Cc1cc2ccc(N3CCOCC3)cc2n2c1nc1ccccc12 , give its reported ΔTm.
0

Identify measured ΔTm corresponding to N#Cc1cc2ccc(N3CCCCC3)cc2n2c1nc1ccccc12
0

For the molecule C[N+]1(C)CCN(c2ccc3cc(C#N)c4nc5ccccc5n4c3c2)CC1.[I-] , give its reported ΔTm.
15.4

Give the measured ΔTm for CC(C)CNc1ccc2cc(C#N)c3nc4ccccc4n3c2c1
3.8

Entry CN(C)CCCNc1ccc2cc(C#N)c3nc4ccccc4n3c2c1 needs its ΔTm filled in; supply it.
19.2
